- tested_target: mouse 17β-HSD1 (Mus musculus, UniProt P51656)
- Construct: made in house; host or cells: HEK293 cells, transient transfection; 1,000 g supernatant of the cell lysate
- Sequence (P51656 1-344): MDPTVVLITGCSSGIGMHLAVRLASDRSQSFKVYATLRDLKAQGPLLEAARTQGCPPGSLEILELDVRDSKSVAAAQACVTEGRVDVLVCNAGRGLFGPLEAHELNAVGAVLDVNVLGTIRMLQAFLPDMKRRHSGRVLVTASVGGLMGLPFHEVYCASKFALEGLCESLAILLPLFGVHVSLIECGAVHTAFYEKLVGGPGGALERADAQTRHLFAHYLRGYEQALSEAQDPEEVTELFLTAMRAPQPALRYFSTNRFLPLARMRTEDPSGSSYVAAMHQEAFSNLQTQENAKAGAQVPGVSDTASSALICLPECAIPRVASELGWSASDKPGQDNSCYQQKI
- test_summary: Inhibition of mouse 17β-HSD1 (recombinant, HEK293 lysate)
- Format: biochemical
- condition_parameters: read-out: Inhibition @ 1 μM m17β-HSD1
Use 50% as the dividing line for inhibition at 1 µM, with the line itself on the rule met side and lower values as rule not met.

[[record]]
molecule = "COc1ccc(-c2ccc(C(=O)c3c(F)ccc(O)c3F)s2)cc1S(=O)(=O)N1CCOCC1 [Compound 19]"
tested_target = "mouse 17β-HSD1 (Mus musculus, UniProt P51656)"
class = "rule met"

[[record]]
molecule = "O=C(c1ccc(-c2cc(F)c(OC(F)F)c(F)c2)s1)c1c(F)ccc(O)c1F [Compound 17]"
tested_target = "mouse 17β-HSD1 (Mus musculus, UniProt P51656)"
class = "rule not met"

[[record]]
molecule = "O=C(c1ccc(-c2cccc(Cl)c2O)s1)c1c(F)ccc(O)c1F [Compound 22]"
tested_target = "mouse 17β-HSD1 (Mus musculus, UniProt P51656)"
class = "rule not met"

[[record]]
molecule = "COc1c(Cl)cc(-c2ccc(C(=O)c3c(F)ccc(O)c3F)s2)cc1CN1CCNCC1 [Compound 30]"
tested_target = "mouse 17β-HSD1 (Mus musculus, UniProt P51656)"
class = "rule not met"

[[record]]
molecule = "COc1c(Cl)cc(-c2ccc(C(=O)c3c(F)ccc(O)c3F)s2)cc1Cn1ccnn1 [Compound 31]"
tested_target = "mouse 17β-HSD1 (Mus musculus, UniProt P51656)"
class = "rule not met"

[[record]]
molecule = "O=C(c1ccc(-c2cccc(Cl)c2)s1)c1c(F)ccc(O)c1F [Compound 11]"
tested_target = "mouse 17β-HSD1 (Mus musculus, UniProt P51656)"
class = "rule met"

[[record]]
molecule = "COc1ccc(-c2sc(C(=O)c3c(F)ccc(O)c3F)cc2C)cc1Cl [Compound 13]"
tested_target = "mouse 17β-HSD1 (Mus musculus, UniProt P51656)"
class = "rule not met"

